- condition-context: Crystal 1; DTA
property: Normal melting temperature (°C)

# example entries with known answers
CC[N+]1(C)CCCCC1.[Br-] [N-ethyl-N-methylpiperidinium bromide] | 109.24
CCCC[N+](CC)(CC)CC.[Br-] [butyltriethyl ammonium bromide] | 216.87

a: CCCC[n+]1ccccc1.[Br-] [1-butylpyridinium bromide]
b: CCCC[N+]1(C)CCCCC1.[Br-] [N-butyl-N-methylpiperidinium bromide]
(Q) Hi there, can you help? I need to know whether a or b has lower measured Normal melting temperature. # answer = label of selected item
(A) a
(a: 103.68 °C, b: 240.67 °C)
